Measured Attribute: melting point

Worked cases, answers included:
Query Smiles: CN1Cc2c(-c3noc(CCl)n3)ncn2-c2ccsc2C1=O
melting point: 221 to 223 °C
//
Query Smiles: CCOC(=O)c1cncc(C(=O)OCC)c1
melting point: 42 to 44 °C
//
Query Smiles: COc1cc2c(-c3cc4cccnc4[nH]3)cn(C)c2cc1OC(C)C
melting point: 216 °C
//
Query Smiles: N#CC(=Cc1ccc([N+](=O)[O-])cc1)c1ccc([N+](=O)[O-])cc1
melting point: 216 to 218 °C

Pending compound:
Lab book: melting point of `CN1C(=O)[C@H](NC(=O)CCCc2cccs2)N=C(c2ccccc2)c2ccccc21` noted as 170 to 180 °C
